# CONDITIONS USED: buffer; pH 7.4; 200.0 µM
Entries get a class label from measured solubility kinetic. See ranges: bottom range = under 8 µg/mL, center range = from 8 µg/mL up to 40 µg/mL, top range = 40 µg/mL and over

CCN(CC(=O)Nc1ccc(NC(C)=O)cc1)C(=O)c1ccc(=O)[nH]c1	top range
COc1ccc(-c2cc(C(=O)Nc3ccc(OC)cc3OC)no2)cc1	bottom range
O=C(c1cc(-c2ccc(F)cc2)nc2ccccc12)N1CCC1	top range
CCN(C(=O)Cn1c(=O)oc2ccccc21)c1ccc(C)c(C)c1	center range
Cc1cc(=O)oc2cc(NC(=O)c3ccccc3C(=O)O)ccc12	top range
Cc1nc(-c2noc(-c3cccc(Cl)c3)n2)c(C(F)(F)F)o1	bottom range
CC(Sc1nccn1C)C(=O)NC1(C#N)CCCCC1 (stereo not drawn)	top range
Cc1cc(NC(=O)COC(=O)c2cnccn2)ccc1Br	top range
COC(=O)[C@H](C)NC(=O)N1CCC(Cc2ccccc2)CC1	top range
Nc1cc(=O)[nH]c(SCC(=O)Nc2cccc(S(=O)(=O)N3CCCCC3)c2)n1	top range
COCC(C)N1CC(O)=C(c2nc(-c3ccc(Cl)cc3)cs2)C1=N (stereo not drawn)	bottom range
O=C1c2cccc3cccc(c23)C(=O)N1c1ccccc1Cl	bottom range
N#C/C(=C/c1ccc(-c2ccccc2[N+](=O)[O-])o1)C(N)=O	bottom range
CCSCc1nc(N)nc(NCCc2ccccc2)n1	center range
N#CC1c2ccccc2C=CN1C(=O)c1ccccc1 (stereo not drawn)	center range
O=Cc1c(NCCN2CCOCC2)c2ccccc2[nH]c1=O	top range
O=C(C[n+]1ccc(/C=N/O)cc1)NCc1ccccc1.[Cl-]	top range
COc1ccc(C(=O)Nc2ccc(NC(=O)C3CC3)nc2)cc1	bottom range
O=C(COc1ccccc1F)OCC(=O)c1ccc([N+](=O)[O-])cc1	top range
O=C(NCC(=O)N1CCN(c2ncccn2)CC1)c1ccccc1F	top range
CCN1/C(=C/C(=S)Nc2ccccc2)Sc2ccccc21	bottom range
CCOC(=O)c1sc(Nc2cccc(Cl)c2)nc1C	bottom range
Cc1cccc(NC(=S)NC23CN4CN(CN(C4)C2)C3)c1C	top range
Cc1cc(C)nc(SCC(=O)N(C)C)n1	center range
O=S(=O)(c1ccc2oc(=S)[nH]c2c1)N1CCCCC1	top range
CCc1nc(CN2CCN(c3cc(C(F)(F)F)ccn3)CC2)c(C)[nH]1	top range
CN(C(=O)CSc1nccc(=O)[nH]1)C1CCCCC1	top range
CC(C)C(NC(=O)c1c(F)cccc1F)C(=O)N1CCN(c2ncccn2)CC1 (stereo not drawn)	center range
COc1ccc(-c2nc3c4ccccc4ccn3c2CN2CCCCC2)cc1	bottom range
C=CCN(C(=O)Nc1ccc2c(c1)nc(C)n2C)c1ccccc1	top range
COc1ccc(Cl)cc1C(=O)OCC(=O)c1ccc[nH]1	center range
Cc1ccccc1NC(=O)c1ccccc1-c1ccccc1	center range
O=S(=O)(c1ccc(F)cc1)N1CCN(c2ncccn2)CC1	center range
CC(=O)N1CCN(Cc2nc(-c3cccc(Cl)c3)no2)CC1	top range
CNS(=O)(=O)c1ccc(NC(=O)c2csc(C)c2)cc1	bottom range
